Provide the reported IC50 of each item.
Molecular target: Aldo-keto reductase family 1 member B1 (Rattus norvegicus)
Assay: Inhibition of ALR2 in rat erythrocytes assessed as reduction in sorbitol accumulation incubated for 3 hrs in presence of 28 mM glucose by gas chromatographic analysis relative to control
Type: cell-based
Field format: number, assumed µM, no unit text.

I'd like to know its IC50. The molecule in question is COc1ccc(S(=O)(=O)N2C(=O)NC(=O)C23CCCc2ccccc23)cc1 (configuration not stated)
7.15

I'd like to know its IC50. The molecule in question is CC(C)c1ccc(S(=O)(=O)N2C(=O)NC3(CCCc4ccccc43)C2=O)cc1 (configuration not stated)
10.3

I'd like to know its IC50. The molecule in question is CC(=O)c1ccc(S(=O)(=O)N2C(=O)NC(=O)C23CCCc2ccccc23)cc1 (configuration not stated)
0.6

I'd like to know its IC50. The molecule in question is Cc1ccc(S(=O)(=O)N2C(=O)NC(=O)C23CCCc2ccccc23)cc1 (configuration not stated)
1.34

I'd like to know its IC50. The molecule in question is CC(C)c1ccc(S(=O)(=O)N2C(=O)NC(=O)C23CCCc2ccccc23)cc1 (configuration not stated)
0.85

I'd like to know its IC50. The molecule in question is O=C1NC(=O)C2(CCCc3ccccc32)N1S(=O)(=O)c1ccc(F)cc1 (configuration not stated)
5.49

I'd like to know its IC50. The molecule in question is COc1ccc(S(=O)(=O)N2C(=O)NC3(CCCc4ccccc43)C2=O)cc1 (configuration not stated)
20.4

I'd like to know its IC50. The molecule in question is O=C1NC2(CCCc3ccccc32)C(=O)N1S(=O)(=O)c1ccc(Br)cc1 (configuration not stated)
11.1

I'd like to know its IC50. The molecule in question is O=C1NC(=O)C2(CCCc3ccccc32)N1S(=O)(=O)c1ccc(Br)cc1 (configuration not stated)
2.79

I'd like to know its IC50. The molecule in question is Cc1ccc(S(=O)(=O)N2C(=O)NC3(CCCc4ccccc43)C2=O)cc1 (configuration not stated)
1.7

I'd like to know its IC50. The molecule in question is CC(=O)c1ccc(S(=O)(=O)N2C(=O)NC3(CCCc4ccccc43)C2=O)cc1 (configuration not stated)
25.7

I'd like to know its IC50. The molecule in question is O=C1NC(=O)C2(CCCc3ccccc32)N1S(=O)(=O)c1ccc(Cl)cc1 (configuration not stated)
3.8

---

Biological target: Aldo-keto reductase family 1 member B1 (Rattus norvegicus, UniProt P07943)
Assay: Inhibition of ALR2 in rat lens assessed as reduction in sorbitol accumulation incubated for 3 hrs in presence of 28 mM glucose by gas chromatographic analysis relative to control
measuredMetric: log10 IC50 (log10 of the value in µM)
Field: value | Transform: log10 | Quantity: IC50 | Unit: µM

I'd like to know its log10 IC50. The molecule in question is O=C1NC2(CCCc3ccccc32)C(=O)N1S(=O)(=O)c1ccc(Br)cc1 (stereo not given)
1.04

I'd like to know its log10 IC50. The molecule in question is Cc1ccc(S(=O)(=O)N2C(=O)NC(=O)C23CCCc2ccccc23)cc1 (stereo not given)
0.06

I'd like to know its log10 IC50. The molecule in question is COc1ccc(S(=O)(=O)N2C(=O)NC(=O)C23CCCc2ccccc23)cc1 (stereo not given)
0.87

I'd like to know its log10 IC50. The molecule in question is O=C1NC(=O)C2(CCCc3ccccc32)N1S(=O)(=O)c1ccc(F)cc1 (stereo not given)
0.80

I'd like to know its log10 IC50. The molecule in question is CC(C)c1ccc(S(=O)(=O)N2C(=O)NC(=O)C23CCCc2ccccc23)cc1 (stereo not given)
-0.08
